Values compiled from PubChem BioAssay (NCI).

# experiment_notes: NCI Yeast Anticancer Drug Screen. Data for the mlh1 rad18 strain (AID 175)
# experimental_conditions: S. cerevisiae mlh1 rad18 strain growth inhibition; at 50.0 µM
About 79,000 compounds went through this panel and 15% of them were active in at least one assay; those are over-represented in the sample as a whole. The source made the active and inactive calls. Cut-off read from the data, not from the text of the source: active = growth inhibition above about 70%; inactive = the rest.
Lab note: assign the record to one of active, inactive

Known results for molecules:
• Cc1cc(=O)cc(-c2ccccc2)[nH]1 = inactive
• CN(C)c1ncnc2c1cnn2-c1ccc(Cl)cc1 = inactive
• CCN(CC)c1ccc(N)cc1 = inactive
• O=C1c2ccccc2C(O)(c2ccccc2)c2ccccc21 = inactive
• Cc1ccc2cc(CCCC(=O)O)ccc2c1 = inactive

Hi, do you know how CCCCNC(N)=O came out in this test?
inactive

State the result this test recorded for O=C(c1ccccc1)[C@H]1Nc2ccc(Cl)cc2[C@H]2c3ccccc3O[C@H]21 .
inactive
